IC50 values for the compounds below.
- system name: IκBα ubiquitinating enzyme (SCF complex: ROC1, Cullin1, Skp1, His-TrCP1; with E1, UbcH5b) (Homo sapiens, UniProt P62877+P63208+Q13616+Q9Y297)
- Construct: His (polyhistidine); made in house; host or cells: insect cells (baculovirus) for the SCF complex and His-E1; E. coli for His-UBCH5b
- Sequence (Q9Y297 whole entry): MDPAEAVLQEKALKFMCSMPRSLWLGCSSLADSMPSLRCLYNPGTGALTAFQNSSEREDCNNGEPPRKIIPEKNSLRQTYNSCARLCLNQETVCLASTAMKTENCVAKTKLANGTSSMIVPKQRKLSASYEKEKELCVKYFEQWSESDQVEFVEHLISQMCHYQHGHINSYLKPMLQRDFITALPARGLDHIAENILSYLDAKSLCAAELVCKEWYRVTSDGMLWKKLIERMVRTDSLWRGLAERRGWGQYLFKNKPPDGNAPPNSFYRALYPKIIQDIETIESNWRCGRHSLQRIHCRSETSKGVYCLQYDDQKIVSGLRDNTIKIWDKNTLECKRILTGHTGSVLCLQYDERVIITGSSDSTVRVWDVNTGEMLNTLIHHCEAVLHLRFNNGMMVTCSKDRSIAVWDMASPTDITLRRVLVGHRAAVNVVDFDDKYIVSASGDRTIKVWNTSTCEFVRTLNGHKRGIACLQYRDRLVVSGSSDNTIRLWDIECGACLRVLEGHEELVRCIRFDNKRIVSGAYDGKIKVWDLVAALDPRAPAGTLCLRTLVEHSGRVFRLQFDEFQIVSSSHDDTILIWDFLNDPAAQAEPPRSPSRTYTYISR
- Sequence (Q13616 whole entry): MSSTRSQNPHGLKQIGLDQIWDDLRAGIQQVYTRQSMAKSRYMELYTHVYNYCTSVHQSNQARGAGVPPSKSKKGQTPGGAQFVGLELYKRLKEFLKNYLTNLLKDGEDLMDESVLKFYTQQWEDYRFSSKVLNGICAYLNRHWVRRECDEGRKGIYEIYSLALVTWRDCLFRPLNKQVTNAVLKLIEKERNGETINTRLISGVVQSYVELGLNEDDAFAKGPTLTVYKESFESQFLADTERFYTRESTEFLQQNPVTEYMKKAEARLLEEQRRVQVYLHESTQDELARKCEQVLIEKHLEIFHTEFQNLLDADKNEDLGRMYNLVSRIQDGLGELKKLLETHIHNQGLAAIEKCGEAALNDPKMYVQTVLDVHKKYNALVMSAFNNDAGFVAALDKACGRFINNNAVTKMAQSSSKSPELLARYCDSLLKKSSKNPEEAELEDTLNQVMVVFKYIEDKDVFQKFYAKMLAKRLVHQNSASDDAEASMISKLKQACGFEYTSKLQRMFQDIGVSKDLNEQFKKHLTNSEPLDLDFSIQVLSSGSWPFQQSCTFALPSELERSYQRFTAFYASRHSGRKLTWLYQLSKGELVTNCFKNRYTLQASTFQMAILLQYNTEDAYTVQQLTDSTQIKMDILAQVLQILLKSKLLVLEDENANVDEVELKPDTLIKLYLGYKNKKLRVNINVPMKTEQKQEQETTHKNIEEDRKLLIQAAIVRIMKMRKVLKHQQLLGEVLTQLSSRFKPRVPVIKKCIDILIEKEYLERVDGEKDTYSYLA
- Sequence (P63208 whole entry): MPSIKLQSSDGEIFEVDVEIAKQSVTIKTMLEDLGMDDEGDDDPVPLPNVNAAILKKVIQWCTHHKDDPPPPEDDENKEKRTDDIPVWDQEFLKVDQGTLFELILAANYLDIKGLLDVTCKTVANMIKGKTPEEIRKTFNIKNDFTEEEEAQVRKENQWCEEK
- Sequence (P62877 whole entry): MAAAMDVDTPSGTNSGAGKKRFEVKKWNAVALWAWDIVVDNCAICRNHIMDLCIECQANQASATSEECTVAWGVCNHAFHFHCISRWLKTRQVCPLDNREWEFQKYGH
- test name: Measurement of ubiquitinating enzyme activity (IκBα ubiquitination, time-resolved fluorescence with Eu(K)-labeled ubiquitin and XL665-labeled anti-GST antibody)
- Format: biochemical
- protocol conditions: enzyme activity inhibition test, method (1), Table 5; read-out: EVALUATION

{"compound": "CC1=NN(c2ccc(S(N)(=O)=O)cc2)C(=O)C1=Cc1ccc(N2CCNCC2)cc1", "IC50": "10 to 20 µM"}
{"compound": "O=C1/C(=C\\c2ccc3ccccc3c2)C(Cc2ccccc2)=NN1c1ccccc1", "IC50": "< 40 µM"}
{"compound": "CC1=NN(c2ccc(C(=O)O)cc2)C(=O)/C1=C\\c1ccc(OCC(=O)Nc2ccccc2)cc1", "IC50": "< 10 µM"}
{"compound": "CC1=NN(c2ccc(C(=O)O)cc2)C(=O)/C1=C\\c1ccc(-n2ccnc2)cc1", "IC50": "< 10 µM"}
{"compound": "COCC1=NN(c2ccccc2)C(=O)/C1=C\\c1ccc(-n2cccn2)cc1", "IC50": "< 40 µM"}
{"compound": "COCC1=NN(c2ccc(C(=O)O)cc2)C(=O)/C1=C\\c1ccc(CO)o1", "IC50": "< 10 µM"}
{"compound": "CC1=NN(c2ccc(S(N)(=O)=O)cc2)C(=O)/C1=C\\c1ccccc1O", "IC50": "< 40 µM"}
{"compound": "O=C1/C(=C\\c2ccc3c(c2)OCCO3)C(c2ccncc2)=NN1c1ccccc1", "IC50": "< 40 µM"}
{"compound": "CC1=NN(c2ccc(C(=O)O)cc2)C(=O)/C1=C\\c1ccc2c(ccn2Cc2cc(C)on2)c1", "IC50": "< 10 µM"}
{"compound": "CC1=NN(c2ccc(S(N)(=O)=O)cc2)C(=O)/C1=C\\c1ccc2[nH]ccc2c1", "IC50": "< 10 µM"}

Query: Fill in the blank: the reported IC50 of CC1=NN(c2cccc(S(N)(=O)=O)c2)C(=O)/C1=C\c1ccc(N2CCC(O)C2)cc1 (centres unmarked) is ____.
Result: < 40 µM

Query: Fill in the blank: the reported IC50 of COc1cc(/C=C2\C(=O)N(c3cccc(S(N)(=O)=O)c3)N=C2C)ccc1OCc1c(C)noc1C is ____.
Result: < 40 µM

Query: Fill in the blank: the reported IC50 of CN1CCN(c2ccc(/C=C3\C(=O)N(c4ccc(C(=O)O)cc4)N=C3Cc3ccccc3)cc2)CC1 is ____.
Result: 10 to 20 µM

Query: Fill in the blank: the reported IC50 of CC1=NN(c2ccc(S(N)(=O)=O)cc2)C(=O)/C1=C\c1ccc(OCC(=O)O)cc1 is ____.
Result: 10 to 20 µM

Query: Fill in the blank: the reported IC50 of CC1=NN(c2cccc(C(=O)N3CCC(O)CC3)c2)C(=O)/C1=C\c1ccc2[nH]ccc2c1 is ____.
Result: < 10 µM

Query: Fill in the blank: the reported IC50 of CC1=NN(c2cccc(S(N)(=O)=O)c2)C(=O)C1=Cc1cc2ccccc2n1C is ____.
Result: 10 to 20 µM

Query: Fill in the blank: the reported IC50 of CC(C)(C)OC(=O)N1CCN(C(=O)C2=NN(c3ccccc3)C(=O)/C2=C\c2ccc(-c3ccccc3F)o2)CC1 is ____.
Result: < 40 µM

Query: Fill in the blank: the reported IC50 of COc1ccc(C2=NN(c3ccccc3)C(=O)/C2=C\c2ccc3ccccc3c2)cc1OC is ____.
Result: 10 to 20 µM

Query: Fill in the blank: the reported IC50 of CCCCC1=NN(c2ccc(C(=O)O)cc2)C(=O)/C1=C\c1ccc(-n2ccnc2)cc1 is ____.
Result: < 10 µM

Taken from patent EP1900728A1.
